B1: ZBTB22 (parent)
chain: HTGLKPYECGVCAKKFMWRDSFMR

Variants of: B1
Protocol Details: protein stability index of a GFP-peptide fusion (GPS, HEK-293T) (PSI 1-6); higher = more stable;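 also: lentivirally expressed fusions sorted by FACS into six bins by GFP to DsRed ratio, PSI derived from sequencing read proportions per bin multiplied by bin number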
Applied Conditions: c terminus: a fixed tail appended
Listed here: items and their measured protein stability index.

These recorded examples may help you get a feel for the data.
{"columns": ["Mutation Id", "protein stability index"],
 "data": [
  ["Y7G", 2.84],
  ["A13E", 1.56],
  ["R19I", 1.71],
  ["C12S", 2.56],
  ["E8I", 2.78]
]}

Exam item: What does the data say about its protein stability index? Entry: `G10Y`
Marked response: 3.51

Exam item: protein stability index for `D20C` ?
Marked response: 3.48

Exam item: Which protein stability index reading was recorded for the variant `C9I` ?
Marked response: 1.98

Exam item: Please look up its protein stability index: `R24C`
Marked response: 2.94

Exam item: Fill in the blank: the reported protein stability index of `K14L` is ____.
Marked response: 1.82

Exam item: Could you tell me which protein stability index is on file for `M23L` ?
Marked response: 1.85

Exam item: # input variant: `D20P` ; wanted: its protein stability index
Marked response: 1.72

Exam item: Look up protein stability index: `S21V`
Marked response: 2.1
